Sourced from patent US4039535A

Parameter: MIC. Scope: all listed entries.
Tested on: Aerobacter aerogenes
Respond numerically; units are µg/mL and should not be typed.

# compound, tested-on, MIC [µg/mL]
measured = [
    ("Cn1nnnc1SCC1=C(C(=O)O)N2C(=O)C(NC(=O)[C@H](NC(=O)NC(=N)N)c3ccccc3)C2SC1 (some centres unmarked) [A]", "Aerobacter aerogenes", 0.7),
]

Record Cn1nnnc1SCC1=C(C(=O)O)N2C(=O)C(NC(=O)[C@H](NC(=O)NC(=N)N)c3ccc(O)cc3)C2SC1 (some centres unmarked) [C] / Aerobacter aerogenes, MIC recorded as 0.1

Record Cc1nnc(SCC2=C(C(=O)O)N3C(=O)C(NC(=O)[C@H](NC(=O)NC(=N)N)c4ccccc4)C3SC2)s1 (some centres unmarked) [B] / Aerobacter aerogenes, MIC recorded as 1

Record CC(=O)OCC1=C(C(=O)O)N2C(=O)C(NC(=O)[C@H](NC(=O)NC(=N)N)c3ccccc3)C2SC1 (some centres unmarked) [E, reference compound] / Aerobacter aerogenes, MIC recorded as 4.5

Record Cc1nnc(SCC2=C(C(=O)O)N3C(=O)C(NC(=O)[C@H](NC(=O)NC(=N)N)c4ccc(O)cc4)C3SC2)s1 (some centres unmarked) [D] / Aerobacter aerogenes, MIC recorded as 1
